- Protocol: Absorption spectrum in chloroform (maximum absorption wavelength, gram absorption coefficient, 550/525 nm coefficient ratio)
- Assay type: physicochemical
- Test Conditions: chloroform solvent; coefficient at 550 nm to coefficient at 525 nm
Below, each entry is listed alongside its reported Ratio of Absorption Coefficient at 525 nm and 550 nm.
Field format: numeric only.

Solved entries:
Molecule: CCCCCCCCCCOc1ccc(C2=c3nc(c4c5cccc6cccc(c3=4)c65)C(c3ccc(OCCCCCCCCCC)cc3)=c3c4c(c5[n]3[Ni][n]3c2c2c(c3C(c3ccc(OCCCCCCCCCC)cc3)=c3nc(c6c7cccc8cccc(c3=6)c87)C=5c3ccc(OCCCCCCCCCC)cc3)-c3cccc5cccc-2c35)-c2cccc3cccc-4c23)cc1
Readout Number: 1.2
//
Molecule: CC(C)(C)c1ccc(C2=c3nc(c4c5cccc6cccc(c3=4)c65)C(c3ccc(C(C)(C)C)cc3)=c3c4c(c5[n]3[Cu][n]3c2c2c(c3C(c3ccc(C(C)(C)C)cc3)=c3nc(c6c7cccc8cccc(c3=6)c87)C=5c3ccc(C(C)(C)C)cc3)-c3cccc5cccc-2c35)-c2cccc3cccc-4c23)cc1
Readout Number: 2.2
//
Molecule: CCCCCOc1ccc(C2=c3nc(c4c5cccc6cccc(c3=4)c65)C(c3ccc(OCCCCC)cc3)=c3c4c(c5[n]3[Cu][n]3c2c2c(c3C(c3ccc(OCCCCC)cc3)=c3nc(c6c7cccc8cccc(c3=6)c87)C=5c3ccc(OCCCCC)cc3)-c3cccc5cccc-2c35)-c2cccc3cccc-4c23)cc1
Readout Number: 2.5

I am curious: what Ratio of Absorption Coefficient at 525 nm and 550 nm value has been reported for CCCCCCOc1ccc(C2=c3nc(c4c5cccc6cccc(c3=4)c65)C(c3ccc(OCCCCCC)cc3)=c3c4c(c5[n]3[Cu][n]3c2c2c(c3C(c3ccc(OCCCCCC)cc3)=c3nc(c6c7cccc8cccc(c3=6)c87)C=5c3ccc(OCCCCCC)cc3)-c3cccc5cccc-2c35)-c2cccc3cccc-4c23)cc1 ? 2.3

Reported Ratio of Absorption Coefficient at 525 nm and 550 nm, molecule CCCCCCCCCCOc1ccc(C2=c3nc(c4c5ccc(Cl)c6c(Cl)ccc(c3=4)c65)C(c3ccc(OCCCCCCCCCC)cc3)=c3c4c(c5[n]3[Ni][n]3c2c2c(c3C(c3ccc(OCCCCCCCCCC)cc3)=c3nc(c6c7ccc(Cl)c8c(Cl)ccc(c3=6)c87)C=5c3ccc(OCCCCCCCCCC)cc3)-c3ccc(Cl)c5c(Cl)ccc-2c35)-c2ccc(Cl)c3c(Cl)ccc-4c23)cc1 : ____ 1.4
